Where these numbers come from: the supplement of paper PMC10307832

Tested on: H3255
Test: relative viability (nuclei count vs DMSO), 5 days (fraction); higher = more cells survive
Conditions: first compound 0.4 µM
Please respond with reported relative viability for every item in the list.
# answer = number (no unit)

# lookup: relative viability of COc1cc(N2CCC(C(N)=O)CC2)ccc1Nc1nc(N)c(Cl)c(Nc2ccccc2S(=O)(=O)C(C)C)n1 [HG-5-88-01] + Nc1ncn([C@H]2C[C@H](O)[C@@H](CO)O2)c(=O)n1 [Decitabine] (partner 2 µM)
0.568

# lookup: relative viability of Clc1ccc(Nc2nnc(Cc3ccncc3)c3ccccc23)cc1 [Vatalanib] + CC(=O)Nc1cccc(-n2c(=O)n(C3CC3)c(=O)c3c(Nc4ccc(I)cc4F)n(C)c(=O)c(C)c32)c1 [Trametinib] (partner 0.02 µM)
0.57

# lookup: relative viability of COc1cc(N2CCC(C(N)=O)CC2)ccc1Nc1nc(N)c(Cl)c(Nc2ccccc2S(=O)(=O)C(C)C)n1 [HG-5-88-01] + CC(=O)c1c(C)c2cnc(Nc3ccc(N4CCNCC4)cn3)nc2n(C2CCCC2)c1=O [Palbociclib] (partner 0.5 µM)
0.309

# lookup: relative viability of COc1cc(N2CCC(C(N)=O)CC2)ccc1Nc1nc(N)c(Cl)c(Nc2ccccc2S(=O)(=O)C(C)C)n1 [HG-5-88-01] + NC(=O)Nc1cc(-c2cccc(F)c2)sc1C(=O)N[C@H]1CCCNC1 [AZD7762] (partner 0.2 µM)
0.916

# lookup: relative viability of COc1cc(N2CCC(C(N)=O)CC2)ccc1Nc1nc(N)c(Cl)c(Nc2ccccc2S(=O)(=O)C(C)C)n1 [HG-5-88-01] + CCNC(=O)c1noc(-c2cc(C(C)C)c(O)cc2O)c1-c1ccc(CN2CCOCC2)cc1 [Luminespib] (partner 0.01 µM)
0.818

# lookup: relative viability of Clc1ccc(Nc2nnc(Cc3ccncc3)c3ccccc23)cc1 [Vatalanib] + O=C(c1cc(Cc2n[nH]c(=O)c3ccccc23)ccc1F)N1CCN(C(=O)C2CC2)CC1 [Olaparib] (partner 8 µM)
0.596

# lookup: relative viability of Clc1ccc(Nc2nnc(Cc3ccncc3)c3ccccc23)cc1 [Vatalanib] + Nc1ncn([C@H]2C[C@H](O)[C@@H](CO)O2)c(=O)n1 [Decitabine] (partner 2 µM)
0.515

---

Test system: EPLC-272H
Experiment: relative viability (nuclei count vs DMSO), 5 days (fraction); higher = more cells survive
Settings: first compound 0.04 µM
Please respond with reported relative viability for every item in the list.
# answer = number (no unit)

# lookup: relative viability of COc1cc(N2CCC(C(N)=O)CC2)ccc1Nc1nc(N)c(Cl)c(Nc2ccccc2S(=O)(=O)C(C)C)n1 [HG-5-88-01] + CCNC(=O)c1noc(-c2cc(C(C)C)c(O)cc2O)c1-c1ccc(CN2CCOCC2)cc1 [Luminespib] (partner 0.01 µM)
0.384

# lookup: relative viability of Clc1ccc(Nc2nnc(Cc3ccncc3)c3ccccc23)cc1 [Vatalanib] + Cc1nc(Nc2ncc(C(=O)Nc3c(C)cccc3Cl)s2)cc(N2CCN(CCO)CC2)n1 [Dasatinib] (partner 0.075 µM)
0.441

# lookup: relative viability of C[C@@H]1CN(CC(=O)Nc2ccc3c(c2)Cc2cccc(-c4cc(=O)cc(N5CCOCC5)o4)c2S3)C[C@H](C)O1 + CC(=O)Nc1cccc(-n2c(=O)n(C3CC3)c(=O)c3c(Nc4ccc(I)cc4F)n(C)c(=O)c(C)c32)c1 [Trametinib] (partner 0.02 µM)
0.281

# lookup: relative viability of COc1cc(N2CCC(C(N)=O)CC2)ccc1Nc1nc(N)c(Cl)c(Nc2ccccc2S(=O)(=O)C(C)C)n1 [HG-5-88-01] + Cc1cc(Nc2cc(N3CCN(C)CC3)nc(Sc3ccc(NC(=O)C4CC4)cc3)n2)n[nH]1 [Tozasertib] (partner 0.1 µM)
0.257

---

Test system: NCI-H1437
Assay: relative viability (nuclei count vs DMSO), 5 days (fraction); higher = more cells survive
Conditions: first compound 4 µM
# label = bin(measured relative viability), where bins are zone 1 (below 0.4), zone 2 (0.4 to below 0.6), zone 3 (0.6 or more)

For the record Clc1ccc(Nc2nnc(Cc3ccncc3)c3ccccc23)cc1 [Vatalanib] + Nc1nc2[nH]cc(CCc3ccc(C(=O)N[C@@H](CCC(=O)O)C(=O)O)cc3)c2c(=O)[nH]1 [Pemetrexed] (partner 0.2 µM) , report the class its relative viability corresponds to.
zone 1

For the record C[C@@H]1CN(CC(=O)Nc2ccc3c(c2)Cc2cccc(-c4cc(=O)cc(N5CCOCC5)o4)c2S3)C[C@H](C)O1 + N=C(N)NC(=N)NCCc1ccccc1 [Phenformin] (partner 250 µM) , report the class its relative viability corresponds to.
zone 1

For the record C[C@@H]1CN(CC(=O)Nc2ccc3c(c2)Cc2cccc(-c4cc(=O)cc(N5CCOCC5)o4)c2S3)C[C@H](C)O1 + Cc1cc(Nc2cc(N3CCN(C)CC3)nc(Sc3ccc(NC(=O)C4CC4)cc3)n2)n[nH]1 [Tozasertib] (partner 0.1 µM) , report the class its relative viability corresponds to.
zone 1

For the record COc1cc(N2CCC(C(N)=O)CC2)ccc1Nc1nc(N)c(Cl)c(Nc2ccccc2S(=O)(=O)C(C)C)n1 [HG-5-88-01] + CS(=O)(=O)N1CCN(Cc2cc3nc(-c4cccc5[nH]ncc45)nc(N4CCOCC4)c3s2)CC1 [Pictilisib] (partner 1 µM) , report the class its relative viability corresponds to.
zone 1

For the record C[C@@H]1CN(CC(=O)Nc2ccc3c(c2)Cc2cccc(-c4cc(=O)cc(N5CCOCC5)o4)c2S3)C[C@H](C)O1 + CCNC(=O)c1noc(-c2cc(C(C)C)c(O)cc2O)c1-c1ccc(CN2CCOCC2)cc1 [Luminespib] (partner 0.01 µM) , report the class its relative viability corresponds to.
zone 3

For the record COc1cc(N2CCC(C(N)=O)CC2)ccc1Nc1nc(N)c(Cl)c(Nc2ccccc2S(=O)(=O)C(C)C)n1 [HG-5-88-01] + CC(=O)c1c(C)c2cnc(Nc3ccc(N4CCNCC4)cn3)nc2n(C2CCCC2)c1=O [Palbociclib] (partner 0.5 µM) , report the class its relative viability corresponds to.
zone 1

For the record COc1cc(N2CCC(C(N)=O)CC2)ccc1Nc1nc(N)c(Cl)c(Nc2ccccc2S(=O)(=O)C(C)C)n1 [HG-5-88-01] + O=C(c1cc(Cc2n[nH]c(=O)c3ccccc23)ccc1F)N1CCN(C(=O)C2CC2)CC1 [Olaparib] (partner 8 µM) , report the class its relative viability corresponds to.
zone 2

For the record Clc1ccc(Nc2nnc(Cc3ccncc3)c3ccccc23)cc1 [Vatalanib] + C[C@]1(O)C[C@@H](c2nc(-c3ccc4ccc(-c5ccccc5)nc4c3)c3c(N)nccn32)C1 [Linsitinib] (partner 1 µM) , report the class its relative viability corresponds to.
zone 3

For the record Clc1ccc(Nc2nnc(Cc3ccncc3)c3ccccc23)cc1 [Vatalanib] + CC(C)C[C@H](NC(=O)[C@H](Cc1ccccc1)NC(=O)c1cnccn1)B(O)O [Bortezomib] (partner 0.002 µM) , report the class its relative viability corresponds to.
zone 2

---

System: NCI-H2228
Assay: relative viability (nuclei count vs DMSO), 5 days (fraction); higher = more cells survive
Conditions: first compound 0.1265 µM
Please respond with reported relative viability for every item in the list.
# answer = number (no unit)

# lookup: relative viability of Clc1ccc(Nc2nnc(Cc3ccncc3)c3ccccc23)cc1 [Vatalanib] + C[C@@H](Oc1cc(-c2cnn(C3CCNCC3)c2)cnc1N)c1c(Cl)ccc(F)c1Cl [Crizotinib] (partner 1 µM)
0.496

# lookup: relative viability of C[C@@H]1CN(CC(=O)Nc2ccc3c(c2)Cc2cccc(-c4cc(=O)cc(N5CCOCC5)o4)c2S3)C[C@H](C)O1 + CCNC(=O)c1noc(-c2cc(C(C)C)c(O)cc2O)c1-c1ccc(CN2CCOCC2)cc1 [Luminespib] (partner 0.01 µM)
0.128

# lookup: relative viability of C[C@@H]1CN(CC(=O)Nc2ccc3c(c2)Cc2cccc(-c4cc(=O)cc(N5CCOCC5)o4)c2S3)C[C@H](C)O1 + CC(=O)c1c(C)c2cnc(Nc3ccc(N4CCNCC4)cn3)nc2n(C2CCCC2)c1=O [Palbociclib] (partner 0.5 µM)
0.743

# lookup: relative viability of COc1cc(N2CCC(C(N)=O)CC2)ccc1Nc1nc(N)c(Cl)c(Nc2ccccc2S(=O)(=O)C(C)C)n1 [HG-5-88-01] + CCNC(=O)c1noc(-c2cc(C(C)C)c(O)cc2O)c1-c1ccc(CN2CCOCC2)cc1 [Luminespib] (partner 0.01 µM)
0.149

# lookup: relative viability of COc1cc(N2CCC(C(N)=O)CC2)ccc1Nc1nc(N)c(Cl)c(Nc2ccccc2S(=O)(=O)C(C)C)n1 [HG-5-88-01] + CS(=O)(=O)CCNCc1ccc(-c2ccc3ncnc(Nc4ccc(OCc5cccc(F)c5)c(Cl)c4)c3c2)o1 [Lapatinib] (partner 2 µM)
0.264

# lookup: relative viability of COc1cc(N2CCC(C(N)=O)CC2)ccc1Nc1nc(N)c(Cl)c(Nc2ccccc2S(=O)(=O)C(C)C)n1 [HG-5-88-01] + COc1cccc2cc(-c3nc([C@H]4CC[C@H](C(=O)O)CC4)n4ncnc(N)c34)[nH]c12 [OSI-027] (partner 0.5 µM)
0.148

# lookup: relative viability of C[C@@H]1CN(CC(=O)Nc2ccc3c(c2)Cc2cccc(-c4cc(=O)cc(N5CCOCC5)o4)c2S3)C[C@H](C)O1 + C[C@@H](Oc1cc(-c2cnn(C3CCNCC3)c2)cnc1N)c1c(Cl)ccc(F)c1Cl [Crizotinib] (partner 1 µM)
0.394

# lookup: relative viability of Clc1ccc(Nc2nnc(Cc3ccncc3)c3ccccc23)cc1 [Vatalanib] + O=C(CCCCCCC(=O)Nc1ccccc1)NO [Vorinostat] (partner 1 µM)
0.589

# lookup: relative viability of C[C@@H]1CN(CC(=O)Nc2ccc3c(c2)Cc2cccc(-c4cc(=O)cc(N5CCOCC5)o4)c2S3)C[C@H](C)O1 + O=C(CCCCCCC(=O)Nc1ccccc1)NO [Vorinostat] (partner 1 µM)
0.589

# lookup: relative viability of Clc1ccc(Nc2nnc(Cc3ccncc3)c3ccccc23)cc1 [Vatalanib] + N=C(N)NC(=N)NCCc1ccccc1 [Phenformin] (partner 250 µM)
0.317

# lookup: relative viability of Clc1ccc(Nc2nnc(Cc3ccncc3)c3ccccc23)cc1 [Vatalanib] + COc1cccc2cc(-c3nc([C@H]4CC[C@H](C(=O)O)CC4)n4ncnc(N)c34)[nH]c12 [OSI-027] (partner 0.5 µM)
0.566
